Target: PPARγ-RXRα heterodimer (Homo sapiens, UniProt P37231)
Sequence (P37231 29-505): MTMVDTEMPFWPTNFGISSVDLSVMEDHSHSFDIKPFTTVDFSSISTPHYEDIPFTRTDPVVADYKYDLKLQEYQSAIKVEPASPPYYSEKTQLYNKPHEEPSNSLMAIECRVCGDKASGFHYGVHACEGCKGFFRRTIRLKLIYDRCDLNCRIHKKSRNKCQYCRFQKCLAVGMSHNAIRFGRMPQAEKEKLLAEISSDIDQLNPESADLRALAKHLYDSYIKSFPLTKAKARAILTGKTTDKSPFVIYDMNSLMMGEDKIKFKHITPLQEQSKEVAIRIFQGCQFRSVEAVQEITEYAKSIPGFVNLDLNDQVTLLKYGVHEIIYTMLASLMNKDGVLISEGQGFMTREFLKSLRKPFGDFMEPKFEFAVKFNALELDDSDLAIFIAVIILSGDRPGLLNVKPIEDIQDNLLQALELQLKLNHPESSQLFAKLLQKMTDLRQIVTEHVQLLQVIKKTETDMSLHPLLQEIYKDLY
Sequence (P19793 whole entry partner): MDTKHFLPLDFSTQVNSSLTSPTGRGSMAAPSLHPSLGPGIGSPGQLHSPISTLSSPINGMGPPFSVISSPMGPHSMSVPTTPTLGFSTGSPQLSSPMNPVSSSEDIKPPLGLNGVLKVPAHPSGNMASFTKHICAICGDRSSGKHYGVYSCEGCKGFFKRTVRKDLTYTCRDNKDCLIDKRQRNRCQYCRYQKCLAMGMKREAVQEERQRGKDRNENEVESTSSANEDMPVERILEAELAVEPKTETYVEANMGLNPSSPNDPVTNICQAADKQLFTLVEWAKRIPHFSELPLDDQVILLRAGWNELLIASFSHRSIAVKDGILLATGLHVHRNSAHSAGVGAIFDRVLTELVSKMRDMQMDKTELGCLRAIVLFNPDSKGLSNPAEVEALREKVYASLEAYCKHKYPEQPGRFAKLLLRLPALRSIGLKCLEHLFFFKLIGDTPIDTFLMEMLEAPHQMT
Assay: PPARγ-RXRα heterodimer ligand activity, luciferase reporter in PPARγ:RXRα:4ERPP/CHO-K1 cells (Test Example 3)
Details: concentration for 50% of the maximum fold induction of luciferase activity; 48 hours, CHO-K1 cells
Observation type: EC50 (nM)

Below, 8 compounds whose answers are already recorded.
Cc1oc(-c2ccccc2)nc1CCc1nc(COc2ccccc2CC(=O)O)cs1: 240
Cc1oc(-c2ccccc2)nc1COc1cc(COc2cccc(CC(=O)O)c2)on1: 62
Cc1oc(-c2ccccc2)nc1COc1ccc(COc2ncccc2CC(=O)O)cn1: 7.1
COc1cc(COc2ccccc2CC(=O)O)ccc1OCc1nc(-c2ccccc2)oc1C: 18
Cc1oc(-c2ccccc2)nc1COc1cc(COc2cccc(CC(=O)O)c2)ccn1: 20
Cc1nn(-c2ccccn2)cc1COc1ccc(COc2ncccc2CC(=O)O)cc1: 1700
Cc1oc(-c2ccco2)nc1COc1ccc(COc2ccccc2CC(=O)O)cc1: 180
Cc1oc(-c2ccccc2)nc1CCc1ccc(COc2ccccc2CC(=O)O)cc1: 26

(A) COc1cc(COc2ncccc2CC(=O)O)ccc1OCc1nc(-c2ccccc2)oc1C
(B) Cc1oc(-c2ccco2)nc1COc1ccc(COc2ccccc2CC(=O)O)cn1
Data request: Between A and B , which one shows the larger EC50 value? Kindly state the label of the option you pick.
Data returned: B
(B: 42 nM, A: 1.7 nM)
